# Test system: L-AVP ((Arg8)-vasopressin) (Homo sapiens)
# Sequence: CYFQNCPRG
# protocol_summary: ITC
# assay_setup: L-RNA; hexaethylene glycol (PEG) spacer between Helix 2 and Helix 1; 37 C; 20 mM Tris pH 7.4, 150 mM NaCl, 5 mM KCl, 1 mM MgCl2, 1 mM CaCl2; activity 46.8%
measured_metric: Kd (nM)
Provide only the numeric value, understood in nM.

Given GGGGUAGGGCUUGGAUGGGUAGUACACGUGUGCGUGGU [CHF-F-037 spiegelmer] , state its recorded Kd. 1.7

---

# Tested on: D-AVP (D-(Arg8)-vasopressin, all-D peptide) (Homo sapiens)
# Sequence: CYFQNCPRG
# protocol_summary: competition
# assay_setup: biotinylated D-AVP; selection buffer
measured_metric: pKd
Answer as the number alone; pKd is minus log10 of concentration in mol/L.

Given AGUGUGCGUGGUUAAUAAUGGGGUAGGGCUUGGAUGGGUAGUACACU [CHF-157-B4 (CHF-F-000)] , state its recorded pKd. 8.02

---

# System: L-AVP ((Arg8)-vasopressin) (Homo sapiens)
# Sequence: CYFQNCPRG
# protocol_summary: ITC
# assay_setup: L-RNA; hexaethylene glycol (PEG) spacer between Helix 2 and Helix 1; 3'-C6-amino 40 kDa PEG; 37 C; 20 mM Tris pH 7.4, 150 mM NaCl, 5 mM KCl, 1 mM MgCl2, 1 mM CaCl2; activity 59.1%
measured_metric: pKd
Answer as the number alone; pKd is minus log10 of concentration in mol/L.

Given GGGGUAGGGCUUGGAUGGGUAGUACACGUGUGCGUGGU [CHF-F-037-3'PEG spiegelmer] , state its recorded pKd. 8.89

---

# measured_target: L-oxytocin (UniProt P01178)
# Sequence: CYIQNCPLG
# protocol_summary: ITC
# assay_setup: L-RNA; hexaethylene glycol (PEG) spacer between Helix 2 and Helix 1; 3'-C6-amino 40 kDa PEG; 37 C; same buffer; activity 69.8%; about ten times lower affinity than …
measured_metric: Kd (nM)
Provide only the numeric value, understood in nM.

Given GGGGUAGGGCUUGGAUGGGUAGUACACGUGUGCGUGGU [CHF-F-037-3'PEG spiegelmer] , state its recorded Kd. 16
